These measurements were taken from paper PMC7354438.

Assay: Drug combination test, mock-infected Vero-E6 cells (CTG)
Assay type: cell-based
Conditions: African green monkey, mock-infected Vero-E6 cells (control), single drug 0.2 uM (other drug 0), read-out: Relative viability (%)
measured property: viability at 72 h, 0.2 uM

# molecule, viability at 72 h, 0.2 uM
records = [
    ("CCN(CC)Cc1cc(Nc2ccnc3cc(Cl)ccc23)ccc1O [Amodiaquine]", "76.4%"),
]

Let's switch to this molecule now.
Exercise: Could you share which viability at 72 h, 0.2 uM value was measured for Cc1c(O)cccc1C(=O)N[C@@H](CSc1ccccc1)[C@H](O)CN1C[C@H]2CCCC[C@H]2C[C@H]1C(=O)NC(C)(C)C [Nelfinavir] ?
Key: 96.5%

* * *

Experiment: Drug combination test, mock-infected Vero-E6 cells (CTG)
Type: cell-based
Conditions: African green monkey, mock-infected Vero-E6 cells (control), single drug 0.008 uM (other drug 0), read-out: Relative viability (%)
# viability at 72 h, 0.008 uM per record follows
Answer with a number only, understood to be in %.

# molecule smiles, unit name, viability at 72 h, 0.008 uM
measured = [
    ("Cc1c(O)cccc1C(=O)N[C@@H](CSc1ccccc1)[C@H](O)CN1C[C@H]2CCCC[C@H]2C[C@H]1C(=O)NC(C)(C)C", "%", 100),
]

Let's switch to this compound now.
Exercise: Could you share which viability at 72 h, 0.008 uM value was measured for `CCN(CC)Cc1cc(Nc2ccnc3cc(Cl)ccc23)ccc1O` ?
Key: 89.1

* * *

Assay: Cytotoxicity in mock-infected Vero-E6 cells (CellTiter-Glo)
Conditions: African green monkey, mock-infected Vero-E6 cells
measured property: CC50 at 72 h

# compound, readout value
measured = [
    ("CCN(CC)Cc1cc(Nc2ccnc3cc(Cl)ccc23)ccc1O [Amodiaquine]", "> 30000 nM"),
]

Exercise: Could you share which CC50 at 72 h value was measured for Cc1c(O)cccc1C(=O)N[C@@H](CSc1ccccc1)[C@H](O)CN1C[C@H]2CCCC[C@H]2C[C@H]1C(=O)NC(C)(C)C [Nelfinavir] ?
Key: 9700 nM

Exercise: Could you share which CC50 at 72 h value was measured for COC1=CC(c2cc3ccccc3[nH]2)=N/C1=C\c1[nH]c(C)cc1C [Obatoclax (Mesylate), Obatoclax] ?
Key: 2200 nM

Exercise: Could you share which CC50 at 72 h value was measured for COC(=O)C[C@](O)(CCCC(C)(C)O)C(=O)O[C@@H]1C(OC)=C[C@]23CCCN2CCc2cc4c(cc2[C@H]13)OCO4 [Homoharringtonine] ?
Key: 360 nM

* * *

System: hCoV-19/Norway/Trondheim-E9/2020
Experiment: Drug test: viability of SARS-CoV-2-infected Vero-E6 cells (CellTiter-Glo)
Type: cell-based
Conditions: Severe acute respiratory syndrome coronavirus 2, Vero C1008, 72 h
measured property: EC50 (nM)
Answer with a number only, understood to be in nM.

Exercise: So what EC50 did CC[C@@H](C(=O)[C@@H](C)[C@@H](O)[C@H](C)[C@@H]1O[C@@H]([C@@H](CC)C(=O)O)CC[C@@H]1C)[C@H]1O[C@]2(C=C[C@@H](O)[C@]3(CC[C@@](C)([C@H]4CC[C@](O)(CC)[C@H](C)O4)O3)O2)[C@H](C)C[C@@H]1C [Salinomycin] get with hCoV-19/Norway/Trondheim-E9/2020?
Key: 200
